# target_or_test_system: human recombinant soluble guanylate cyclase enzyme α1β1 (h sGC) (Homo sapiens, UniProt Q02108+Q02153)
# Construct: purchased Enzo Life Sciences ALX-201-177
# Sequence (Q02108 whole entry): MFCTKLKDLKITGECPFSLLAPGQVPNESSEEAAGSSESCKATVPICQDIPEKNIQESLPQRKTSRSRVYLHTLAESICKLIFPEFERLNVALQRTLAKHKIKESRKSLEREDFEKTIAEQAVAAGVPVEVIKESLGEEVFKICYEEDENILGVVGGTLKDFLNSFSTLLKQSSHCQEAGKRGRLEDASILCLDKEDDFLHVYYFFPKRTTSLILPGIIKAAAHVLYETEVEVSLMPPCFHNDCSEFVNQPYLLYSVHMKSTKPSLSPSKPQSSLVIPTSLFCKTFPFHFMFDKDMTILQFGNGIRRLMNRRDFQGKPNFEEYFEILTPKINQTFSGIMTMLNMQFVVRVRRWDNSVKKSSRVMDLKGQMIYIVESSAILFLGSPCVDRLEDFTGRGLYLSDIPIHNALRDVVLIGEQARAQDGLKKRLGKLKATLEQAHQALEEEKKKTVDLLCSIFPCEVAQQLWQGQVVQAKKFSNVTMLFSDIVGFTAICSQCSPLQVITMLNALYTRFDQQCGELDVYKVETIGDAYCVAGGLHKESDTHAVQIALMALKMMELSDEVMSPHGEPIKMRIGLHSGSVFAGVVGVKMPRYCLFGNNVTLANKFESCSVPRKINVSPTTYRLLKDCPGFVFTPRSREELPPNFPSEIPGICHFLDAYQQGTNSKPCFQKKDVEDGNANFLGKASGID
# Sequence (Q02153 whole entry): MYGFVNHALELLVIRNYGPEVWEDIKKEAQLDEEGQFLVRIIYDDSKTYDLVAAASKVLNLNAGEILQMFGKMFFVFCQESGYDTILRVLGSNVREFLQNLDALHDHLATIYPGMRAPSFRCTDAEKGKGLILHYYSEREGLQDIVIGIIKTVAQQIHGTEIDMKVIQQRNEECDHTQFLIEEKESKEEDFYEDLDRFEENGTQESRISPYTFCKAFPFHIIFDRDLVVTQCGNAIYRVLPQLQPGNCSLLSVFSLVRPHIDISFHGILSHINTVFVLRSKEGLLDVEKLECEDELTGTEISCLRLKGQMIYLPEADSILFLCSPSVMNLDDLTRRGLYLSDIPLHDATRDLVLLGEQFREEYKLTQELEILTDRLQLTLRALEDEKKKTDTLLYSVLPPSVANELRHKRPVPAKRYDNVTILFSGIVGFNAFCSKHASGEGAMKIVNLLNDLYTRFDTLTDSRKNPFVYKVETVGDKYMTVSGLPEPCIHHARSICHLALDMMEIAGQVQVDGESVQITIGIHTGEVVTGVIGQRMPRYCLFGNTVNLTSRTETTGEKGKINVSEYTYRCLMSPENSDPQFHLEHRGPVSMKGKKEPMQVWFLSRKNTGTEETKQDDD
# measurement_notes: Purified human recombinant sGC α1β1 enzyme assay in the presence of DETA-NONOate (cGMP HTRF)
# Type: biochemical
pEC50: −log10 of the molar value.
# key: entry, value: pEC50

CCOC(=O)C1(C)C(=O)Nc2nc(-c3nc(OC)n(Cc4ccccc4F)n3)nc(N)c21 (centres unmarked) : 5.30 to 5.70

Alright, here's another molecule for you.
Req: Value lookup for pEC50; key = CCOC(=O)C1(C)C(=O)Nc2nc(-c3nn(Cc4ccccc4F)c(=O)n3C)nc(N)c21 (centres unmarked)
Resp: 5.30 to 5.70

Values from patent US20160311826A1
